- Target Or Test System: Regulator of G-protein signaling 4 (Homo sapiens) (UniProt P49798)
- Sequence (P49798 whole entry, looked up): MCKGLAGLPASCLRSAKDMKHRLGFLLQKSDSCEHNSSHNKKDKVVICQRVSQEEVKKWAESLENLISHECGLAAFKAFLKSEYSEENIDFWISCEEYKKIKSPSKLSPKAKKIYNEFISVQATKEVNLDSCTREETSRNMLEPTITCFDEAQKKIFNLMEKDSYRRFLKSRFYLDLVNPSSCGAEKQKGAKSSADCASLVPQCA
- Protocol Notes: RGS4-Galphao binding modulators, SAR follow-up, biochemical, multiplexed bead flow cytometry, SAR compounds (AID 2295)
- Particulars: bead-based flow cytometry, RGS4-AF488 Galphao binding; measured here: Ki calculated from EC50
pKi: −log10 of the molar value.
Observation Type: pKi

Some entries whose results are on file:
# Molecular String, pKi
records = [
    ("CCN(CC)S(=O)(=O)c1cccc(-c2n[nH]c(=S)n2/N=C/c2ccc(C(=O)OC)cc2)c1", 5.09),
    ("CCN(CC)S(=O)(=O)c1cccc(C(=O)N/N=C/c2ccc(O)c(O)c2O)c1", 6.27),
    ("Cc1cc(Cl)ccc1N=c1ssnc1Cl", 6.59),
]

(1) O=c1c2ccccc2sn1-c1ccccc1
(2) CN=c1scc(C)n1/N=C/c1ccc(O)c(O)c1O
Prompt: Sorting by pKi in descending order, would 1 or 2 appear first? Write down the label attached to your selection.
Completion: 1
